Assayed System: Phosphodiesterase 4 (Homo sapiens, UniProt P27815+Q08499+Q07343+Q08493)
Protocol Description: Inhibition of phosphodiesterase 4 (PDE4) in human neutrophils
Format: protein assay
// F strictly below 8 in pIC50; T otherwise

INSERT INTO results (compound, discrete_label) VALUES
  ('COc1ccc(C2=NN(C3CCCCCC3)C(=O)C3CC=CCC23)cc1OCCCCCc1ccccc1 (stereo not given)', 'T'),
  ('COc1ccc(C2=NN(C3CCCCCC3)C(=O)C3CC=CCC23)cc1OCCCCn1cnc2ncncc21 (stereo not given)', 'F'),
  ('COc1ccc(C2=NN(C3CCCCCC3)C(=O)C3CC=CCC23)cc1OCCO (stereo not given)', 'T');

Let us examine a further case.
Ask: Entry COc1ccc(C2=NN(C3CCCCCC3)C(=O)C3CC=CCC23)cc1OCCCCOc1ccc(C#N)cc1 (stereo not given) : is its pIC50 no less than 8?
Reply: T
